Values compiled from PubChem BioAssay AID248.

# Test system: L1210 leukemia ip in BDF1 mice, survival T/C
# assay.remarks: NCI In Vivo Anticancer Drug Screen. Data for tumor model L1210 Leukemia (intraperitoneal) in B6D2F1 (BDF1) mice
# condition.summary: endpoint: mean survival time; dose: 100.0 mg/kg/injection; schedule: Q01DX001 (ip); vehicle: saline; higher = longer survival
Toxic doses and inconclusive results are not listed.
endpoint.name: T/C

[in] State the recorded T/C for this entry: C[N+](C)(CCNCc1ccccc1)Cc1ccccc1
[out] 102 % of control

[in] State the recorded T/C for this entry: Nc1ncnc2c1ncn2C1CC(O)C(O)CO1 (configuration not stated)
[out] 105 % of control

[in] State the recorded T/C for this entry: CCOC(=N)c1ccc(C(=O)OCCOC)cc1
[out] 97 % of control

[in] State the recorded T/C for this entry: Cc1ccc(C(=O)C(C)CN2CCCCC2)cc1 (configuration not stated)
[out] 97 % of control

[in] State the recorded T/C for this entry: CC(=O)N[Si](C)(C)C
[out] 102 % of control

[in] State the recorded T/C for this entry: CCCCN=C(N)N=C(N)N
[out] 109 % of control

[in] State the recorded T/C for this entry: CCN(CC)CCCC(C)Nc1nccc(/C=C/c2ccc(Cl)cc2)n1 (configuration not stated)
[out] 96 % of control
